Reported EC50 is given for each of the following compounds.
assay: Antiproliferative activity against human NHFB cells assessed as reduction in cell growth incubated for 72 hrs by MTT assay; type: cell-based
Returns: string containing the number followed by the unit.

Field request: EC50 | item: CCN(CC)CCNC(=O)c1c(C)[nH]c(/C=C2\C(=O)Nc3ccc(F)cc32)c1C [SUNITINIB] 300 nM

Field request: EC50 | item: COc1ccc(C2CC(c3ccc4ccccc4c3)=NN2C2=NC(=O)/C(=C3/C(=O)Nc4ccc(OC)cc43)S2)cc1 (stereo not drawn) 270 nM

Field request: EC50 | item: COc1ccc(C2CC(c3ccc4ccccc4c3)=NN2C2=NC(=O)/C(=C3/C(=O)Nc4ccc(C)cc43)S2)cc1 (stereo not drawn) 150 nM
